# Target or system: human RXFP1 (Homo sapiens)
# Construct: expressed in transfected cells
# Sequence (Q9HBX9 whole entry): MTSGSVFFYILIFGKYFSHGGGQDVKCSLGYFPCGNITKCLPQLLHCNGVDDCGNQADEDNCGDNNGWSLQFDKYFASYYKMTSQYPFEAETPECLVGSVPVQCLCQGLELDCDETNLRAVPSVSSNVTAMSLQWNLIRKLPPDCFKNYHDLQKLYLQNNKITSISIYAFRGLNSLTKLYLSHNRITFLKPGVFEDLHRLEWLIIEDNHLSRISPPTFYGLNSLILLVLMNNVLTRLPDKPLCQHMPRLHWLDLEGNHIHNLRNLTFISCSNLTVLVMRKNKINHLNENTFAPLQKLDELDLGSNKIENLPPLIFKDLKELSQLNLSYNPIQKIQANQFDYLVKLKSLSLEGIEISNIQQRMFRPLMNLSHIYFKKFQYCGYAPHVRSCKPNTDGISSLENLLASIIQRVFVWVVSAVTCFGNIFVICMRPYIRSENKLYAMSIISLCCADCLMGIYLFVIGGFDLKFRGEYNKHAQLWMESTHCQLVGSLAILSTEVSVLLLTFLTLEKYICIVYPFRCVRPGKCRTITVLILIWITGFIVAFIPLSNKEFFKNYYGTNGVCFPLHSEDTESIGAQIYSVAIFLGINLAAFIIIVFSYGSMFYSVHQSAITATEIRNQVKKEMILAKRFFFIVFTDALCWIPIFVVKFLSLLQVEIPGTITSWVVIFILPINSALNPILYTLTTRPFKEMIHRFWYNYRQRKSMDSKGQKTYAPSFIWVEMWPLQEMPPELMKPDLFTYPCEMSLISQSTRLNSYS
# Experiment notes: RXFP1 cAMP assay (hRXFP1 HEK293 cAMP assay, HTRF)
# Assay type: cell-based
# Study conditions: HEK293 cells stably expressing human RXFP1, 30 min at room temperature, read-out: cAMP hRXFP1 HEK293 Assay EC50
Experimental endpoint: EC50 (nM)
Return type: number; implicit unit nM.

Reference set, count: 4
* COC(=O)C(NC(=O)C1CCOCC1)c1ccc(F)c(-c2ccc(OC)c(C(=O)N[C@@H]3C4CCC(/C4=C/C(F)(F)F)[C@@H]3C(=O)Nc3ccc(F)c(C(F)(F)F)c3)c2)c1 (some centres unmarked) [compound 247] | 73
* COc1ccc(C2=NO[C@H]3CC(CO)C[C@@H]23)cc1C(=O)N[C@H]1[C@@H](C(=O)Nc2ccc(F)c(C(F)(F)F)c2)[C@H]2CC[C@@H]1/C2=C\CCC(F)(F)F (some centres unmarked) [compound 825] | 2.9
* COc1ccc(-c2cc(C(=O)O)ccc2F)cc1C(=O)N[C@@H]1C2CCC(/C2=C/C2CC2)[C@@H]1C(=O)NC1CCc2ccccc2C1 (some centres unmarked) [compound 299] | 227
* COc1ccc(-c2cc(C3=NOC4CC(CO)CC34)ccc2F)cc1C(=O)N[C@H]1[C@@H](C(=O)Nc2ccc(F)c(C(F)(F)F)c2)[C@H]2CC[C@@H]1/C2=C\C1CCCC1 (some centres unmarked) [compound 949] | 3.6

Okay, now this molecule:
Measured on human RXFP1 (Homo sapiens), COc1ccc(C2=NOC3C4CC(C(O)C4O)C23)cc1C(=O)N[C@H]1[C@@H](C(=O)Nc2ccc(F)c(C(F)(F)F)c2)[C@H]2CC[C@@H]1/C2=C\C1CC1 (single isomer, unassigned) [Example 448] has a documented EC50 of 1.2

----------
# Target or system: human RXFP1 (Homo sapiens)
# Construct: expressed in transfected cells
# Experiment notes: RXFP1 cAMP assay (hRXFP1 HEK293 cAMP assay, HTRF)
# Type: cell-based
# Study conditions: HEK293 cells stably expressing human RXFP1, 30 min at room temperature, read-out: cAMP hRXFP1 HEK293 Assay EC50
Entries and their measured EC50 follow.
Return type: number; implicit unit nM.

Reference set, count: 2
• COc1ccc(Br)cc1C(=O)N[C@@H]1C2CCC(/C2=C/C(F)(F)F)[C@@H]1C(=O)Nc1ccc(F)c(C(F)(F)F)c1 (stereo partly drawn) = 1860
• COCCOc1ccc(C2=NOC3COCC23)cc1C(=O)N[C@H]1[C@@H](C(=O)Nc2ccc(F)c(C(F)(F)F)c2)[C@H]2CC[C@@H]1/C2=C\C1CC1 (single isomer, unassigned) [compound 644] = 238

Measured on human RXFP1 (Homo sapiens), C=C/C=C1\C2CCC1[C@H](C(=O)Nc1ccc(F)c(C(F)(F)F)c1)[C@@H]2NC(=O)c1cc(-c2cc(C(=O)O)ccc2F)ccc1OC (stereo partly drawn) has a documented EC50 of 100

----------
# Target or system: human RXFP1 (Homo sapiens)
# Construct: expressed in transfected cells
# Experiment notes: RXFP1 cAMP assay (hRXFP1 HEK293 cAMP assay, HTRF)
# Format: cell-based
# Study conditions: HEK293 cells stably expressing human RXFP1, 30 min at room temperature, read-out: cAMP hRXFP1 HEK293 Assay EC50
pEC50: −log10 of the molar value.
Could you label it met if measured pEC50 is 7 or higher, and not met otherwise?

Sample answers from the record:
• COCCNC(=O)c1ccc(-c2ccc(OC)c(C(=O)N[C@@H]3C4CCC(/C4=C/c4ccccc4)[C@@H]3C(=O)Nc3ccc(F)c(C(F)(F)F)c3)c2)c(F)c1 (some centres unmarked) [compound 197] = met
• COc1ccc(C2=NOC(CCO)C2)cc1C(=O)N[C@@H]1C2CCC(/C2=C/C2CC2)[C@@H]1C(=O)Nc1ccc(F)c(C(F)(F)F)c1 (some centres unmarked) [compound 398] = met
• COc1ccc(C2=NOC(C3(O)CCCCC3)C2)cc1C(=O)N[C@H]1[C@@H](C(=O)Nc2ccc(F)c(C(F)(F)F)c2)[C@H]2CC[C@@H]1/C2=C\C1CC1 (single isomer, unassigned) [compound 549] = met

Has CNC(=O)c1ccc(F)c(-c2ccc(OC)c(C(=O)N[C@H]3[C@@H](C(=O)Nc4ccc(F)c(C(F)(F)F)c4)[C@H]4CC[C@@H]3C4=C(C)C)c2)c1 [compound 151] a recorded pEC50 greater than or equal to 7?
not met

Has COc1cc(F)c(F)cc1C(=O)N[C@@H]1C2CCC(/C2=C/c2cccs2)[C@@H]1C(=O)Nc1ccc(F)c(C(F)(F)F)c1 (some centres unmarked) [compound 124] a recorded pEC50 greater than or equal to 7?
not met

Has COc1cc(F)c(F)cc1C(=O)N[C@@H]1C2CCC(/C2=C/C(C)(C)O)[C@@H]1C(=O)Nc1ccc(F)c(C(F)(F)F)c1 (some centres unmarked) [Example 65] a recorded pEC50 greater than or equal to 7?
not met

Has COc1ccc(C2=NOC(C3(O)CCC3)C2)cc1C(=O)N[C@H]1[C@@H](C(=O)Nc2ccc(F)c(C(F)(F)F)c2)[C@H]2CC[C@@H]1/C2=C\C1CC1 (single isomer, unassigned) [compound 515] a recorded pEC50 greater than or equal to 7?
met

Has COc1ccc(-c2cccc(C(=O)O)c2OC)cc1C(=O)N[C@H]1[C@@H](C(=O)Nc2ccc(F)c(C(F)(F)F)c2)[C@H]2CC[C@@H]1C2=C(C)C [compound 101] a recorded pEC50 greater than or equal to 7?
not met
